- System: obese dogs
- Assay Text: Clinical trial in obese dogs: serum biochemical parameters
- Type: in vivo
- Measurement Setup: obese dogs, serum, 0.5 mg/kg once a day oral for 8 weeks
Measure Name: TP (g/dL)
Hi! Could you send only the number? It should be in g/dL, unit omitted.

TP for OC[C@H]1O[C@@H](c2cc(Cc3ccc(C4CC4)cc3)c(Cl)c3c2CCO3)[C@H](O)[C@@H](O)[C@@H]1O [Enavogliflozin, enavogliflozin] is 6.43

---

- Tested on: obese dogs
- Assay Text: Clinical trial in obese dogs: serum biochemical parameters
- Type: in vivo
- Measurement Setup: obese dogs, serum, 1 mg/kg once a day oral for 8 weeks
Measure Name: TP (g/dL)
Give just the numeric value; g/dL need not be written.

response.value for OC[C@H]1O[C@@H](c2cc(Cc3ccc(C4CC4)cc3)c(Cl)c3c2CCO3)[C@H](O)[C@@H](O)[C@@H]1O [Enavogliflozin, enavogliflozin] (field: TP) = 6.14
